Provenance of the data: ChEMBL document CHEMBL5252535

Biological target: Eukaryotic translation initiation factor 4E (Homo sapiens)
Sequence (P06730 whole entry): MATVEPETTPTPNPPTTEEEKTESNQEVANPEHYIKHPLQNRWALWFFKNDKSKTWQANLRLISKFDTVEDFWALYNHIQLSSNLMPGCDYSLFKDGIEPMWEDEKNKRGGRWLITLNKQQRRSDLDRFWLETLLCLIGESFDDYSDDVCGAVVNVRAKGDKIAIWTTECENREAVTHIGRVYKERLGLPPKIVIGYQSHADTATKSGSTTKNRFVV
Assay: Inhibition of P32-[alpha-GTP] cap radiolabelled RNA binding to recombinant eIF4E (unknown origin) assessed as decrease in cross linked RNA-eIF4E complex formation preincubated with UV radiation for 30 mins followed by RNase addition and measured after 30 mins by SDS-PAGE based autoradiographic analysis
ENDPOINT NAME: IC50 (µM)
Give the number; µM is assumed, so skip it.

(Q) # get_value(readout= IC50, system= Eukaryotic translation initiation factor 4E (Homo sapiens)) for "Nc1nc2c(c(=O)[nH]1)[n+](Cc1ccccc1)cn2[C@@H]1O[C@H](CNS(=O)(=O)C(F)(F)F)[C@@H](O)[C@H]1O"
(A) 12.6
